koff values, listed per item
molecular target: T1, human soluble urokinase plasminogen activator receptor (suPAR) (human, UniProt Q03405 23-303, limits assumed); test: BLI (Octet) off-rate screen of scFv clones
T1 construct: Column head says only 'human'; also called human suPAR; hsuPAR
T1 sequence (Q03405 23-303 limits assumed): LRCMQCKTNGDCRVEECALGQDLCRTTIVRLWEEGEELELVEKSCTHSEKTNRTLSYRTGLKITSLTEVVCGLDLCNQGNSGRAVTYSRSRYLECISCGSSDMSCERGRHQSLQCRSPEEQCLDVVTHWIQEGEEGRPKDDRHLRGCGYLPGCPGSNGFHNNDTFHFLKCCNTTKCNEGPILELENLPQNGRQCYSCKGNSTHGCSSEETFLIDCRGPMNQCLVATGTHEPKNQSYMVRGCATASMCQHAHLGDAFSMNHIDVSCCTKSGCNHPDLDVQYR
A complete answer gives the number and then names the unit.

Some binders with known koff results, for comparison:
BINDER: suPAR_DB02_H05 (scFv, V domains shown, scFv clone from phage display) VH: QVQLVQSGAEVKKPGASVKVSCKASGYFFTAYYMHWVRQAPGQGLEWMGWIDPENGNTIYDQKFQGRVTMTRDTSTSTVYMELSSLRSEDTAVYYCARGYDVDWFVYWGQGTLVTVSS VL: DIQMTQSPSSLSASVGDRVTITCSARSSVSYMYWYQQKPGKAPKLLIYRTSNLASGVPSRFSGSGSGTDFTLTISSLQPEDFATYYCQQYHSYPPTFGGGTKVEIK
koff: 0.00442 s⁻¹

BINDER: suPAR_DB02_F11 (scFv, V domains shown, scFv clone from phage display) VH: QVQLVQSGAEVKKPGASVKVSCKASGYTFTSSYMHWVRQAPGQGLEWMGWIDHENGNTIYDQKFQGRVTMTRDTSTSTVYMELSSLRSEDTAVYYCARGYDVDWFVYWGQGTLVTVSS VL: DIQMTQSPSSLSASVGDRVTITCRARSSISYMYWYQQKPGKAPKLLIYRTSNLASGVPSRFSGSGSGTDFTLTISSLQPEDFATYYCQQYHSYPPTFGGGTKVEIK
koff: 0.00198 s⁻¹

BINDER: suPAR_DB02_E09 (scFv, V domains shown, scFv clone from phage display) VH: QVQLVQSGAEVKKPGASVKVSCKASGFNIKDYYIHWVRQAPGQGLEWMGWIDPNSGGTNYAQKFQGRVTMTRDTSTSTVYMELSSLRSEDTAVYYCARGYDVDWFVYWGQGTLVTVSS VL: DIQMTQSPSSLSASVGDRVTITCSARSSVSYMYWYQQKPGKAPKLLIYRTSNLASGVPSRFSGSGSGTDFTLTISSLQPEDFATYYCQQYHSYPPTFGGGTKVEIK
koff: 0.00473 s⁻¹

Measured koff, suPAR_DB02_E12 (scFv, V domains shown, scFv clone from phage display) VH: QVQLVQSGAEVKKPGASVKVSCKASGYTFTSNYMHWVRQAPGQGLEWMGWIDHENGNTIYDQKFQGRVTMTRDTSTSTVYMELSSLRSEDTAVYYCARGYDVDWFVYWGQGTLVTVSS VL: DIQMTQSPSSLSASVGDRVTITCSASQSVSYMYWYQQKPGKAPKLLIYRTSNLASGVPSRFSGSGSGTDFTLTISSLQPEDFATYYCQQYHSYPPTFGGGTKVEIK : 0.00675 s⁻¹

Noted for suPAR_DB02_C06 (scFv, V domains shown, scFv clone from phage display) VH: QVQLVQSGAEVKKPGASVKVSCKASGFNITDYYMHWVRQAPGQGLEWMGWIDHENGNTIYDQKFQGRVTMTRDTSTSTVYMELSSLRSEDTAVYYCARGYDVDWFVYWGQGTLVTVSS VL: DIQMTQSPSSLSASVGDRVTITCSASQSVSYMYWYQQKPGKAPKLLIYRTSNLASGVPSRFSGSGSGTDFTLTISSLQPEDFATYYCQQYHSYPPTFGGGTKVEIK : its koff reads 0.00475 s⁻¹
